Where do these numbers come from? They come from PubChem BioAssay (NCI).

# TGI per entry
System: SNB-19 CNS
Procedure text: NCI tumour cell line growth inhibition, 48 h

Worked examples follow.
| Compound | TGI |
| --- | --- |
| Cc1cc(NC(=O)CCc2ccc(N3C(N)=NC(N)=NC3(C)C)cc2)ccc1S(=O)(=O)F | > 100 µM |
| O=C(NCCNCCO)c1ccc2oc3cc4ccccc4c(=O)n3c2c1 | 40.9 µM |
| CC[n+]1[b-](C(C)(C)C)n(/N=C(\C)C(C)(C)C)[b-](C(C)(C)C)[n+]1CC | > 100 µM |
| CC(=O)Nc1ccc(/C=c2\sc3nnc(/C=C/c4ccccc4)n3c2=O)cc1 | > 50 µM |
| CC(=O)CN=C(C)NNc1ccc([N+](=O)[O-])cc1[N+](=O)[O-] | > 100 µM |
| C=C(CO)CC(O)c1ccccc1 (stereo unspecified) | > 100 µM |
| COc1cc(CNC(=O)CCCCCCCC/C=C/Br)ccc1O | > 10 µM |
| COCCN1C2=CCCCC2=Nc2c(N)nc(N)nc21 | > 100 µM |
| Cc1oc2c(c1C(=O)c1ccccc1)C(=O)c1ccccc1C2=O | 23.7 µM |
| CCOC(=O)Cn1nc2ccc(Nc3nc4ccccc4nc3C(=O)OCC)cc2n1 | > 100 µM |

Q: For SNB-19 CNS, provide TGI of Cc1c2n(c3ccccc13)CC1C2N(C)OC1(C)C (stereo unspecified) please.
Result: > 100 µM

* * *

System: LXFL 529 NSCLC
Procedure text: NCI tumour cell line growth inhibition, 48 h
Here the recorded TGI is given for each entry.

In the examples that follow, each entry is paired with its recorded TGI.
| Molecule | Target or test system | Assay metric | Result |
| --- | --- | --- | --- |
| CC(C)(C)C1CCC2c3c([nH]c4ccccc34)C3C(=O)N(c4ccc(Br)cc4)C(=O)C3C2C1 (centres undefined) | LXFL 529 NSCLC | TGI | 48.1 µM |
| Oc1cccc(C2SCc3nc4ccccc4n32)c1 (centres undefined) | LXFL 529 NSCLC | TGI | > 100 µM |
| C=C(C)C1CC[C@]2(C(=O)O)CCC3(C)[C@H](CCC4[C@@]5(C)CC[C@H](OC6OC(CO)C(O)C6OC6OC(C)C(O)C(O)C6O)[C@@](C)(CO)C5CC[C@]43C)C12 (some centres undefined) | LXFL 529 NSCLC | TGI | > 100 µM |
| C/C=C/C=C/[C@H]1Cc2cc(O)cc(O)c2O1 | LXFL 529 NSCLC | TGI | > 100 µM |
| CCC12C=CCN3CC[C@]4(C(=C(C(=O)OC)[C@@H]1Nc1ccn(C5OC(COC(C)=O)C(OC(C)=O)C5OC(C)=O)c(=O)n1)Nc1ccccc14)C32 (some centres undefined) | LXFL 529 NSCLC | TGI | 8.94 µM |
| O=C1OC(=O)C2C3CCC(O3)C12 (centres undefined) | LXFL 529 NSCLC | TGI | > 100 µM |
| CCOc1ccc(N=Cc2cc(OC)c(OC)c(OC)c2)cc1 | LXFL 529 NSCLC | TGI | > 100 µM |
| CC1CC(=O)C(C(O)CC2CC(=O)N(c3ccccc3)C(=O)C2)C(C)C1 (centres undefined) | LXFL 529 NSCLC | TGI | > 100 µM |

Now consider a different molecule.
Q: Which TGI is reported for this molecule? Cc1[nH]n(-c2ccccc2)c(=S)c1C(=O)c1ccccc1
Result: 37.2 µM

* * *

Test system: A549 NSCLC
Procedure text: NCI tumour cell line growth inhibition, 48 h
Where a SMILES comes first, the peptide text is derived from it. [ ]: non-standard residue; d: D form. 2Nal = N[CH](Cc1ccc2ccccc2c1)C(=O)O
Item-by-item account of GI50

| Molecule | Result |
| --- | --- |
| C/C=C(/C)C(=O)OC1C=C(CO)C(=O)C(OC(=O)/C(C)=C\C)C1C(C)C (stereo unspecified) | 1.45 µM |
| O=C1Nc2ccccc2SC1C1SC(=S)N(Cc2ccccc2)C1=O (stereo unspecified) | 16 µM |
| CC(NC(=O)C(N)Cc1ccccc1)C(=O)NC(Cc1ccc(O)cc1)C(=O)NC(Cc1c[nH]c2ccccc12)C(=O)NC(CCCCN)C(=O)NC(C(=O)NC(C)C(=O)NC(Cc1ccc2ccccc2c1)C(N)=O)C(C)C (stereo unspecified) (H-FAYWKVA[2Nal]-NH2; configuration not given here) | 20.7 µM |
| O=S(=O)(Nc1ccc(Cl)c(C(F)(F)F)c1)c1ccc(-c2cnc(C3CC3)o2)cc1 | 0.577 µM |
| N#CC1=C(N)Oc2c(sc3c(F)cccc23)C1c1ccc([N+](=O)[O-])cc1 (stereo unspecified) | 0.214 µM |

Kindly review the next molecule as well.
Q: I'm curious: which GI50 was measured for O=c1cccc(C#CCCCCOC2CCCO2)o1 (stereo unspecified) tested on A549 NSCLC?
Result: 9.16 µM

* * *

Tested on: NCI-H460 lung
Outcome (select one): class 1 for active, class 0 for inactive

Example entries and their recorded answers appear below.
| Molecule | Target or test system | Class assignment |
| --- | --- | --- |
| Cc1ccnc2c1NC(=O)c1cccnc1N2C1CC1 | NCI-H460 lung | class 0 |
| Cc1cc(N2CCN(C)CC2)nc(NC2CCCC(Nc3ccnc4cc(Cl)ccc34)C2)n1 (stereo not given) | NCI-H460 lung | class 0 |
| O=C(Nc1ccc(-n2cc(-c3ccncc3)c(-c3ccc(Cl)c(O)c3)n2)cc1)c1cc(Cl)cc(Cl)c1 | NCI-H460 lung | class 0 |
| N#CC1=C(N)Oc2c(sc3c(F)cccc23)C1c1ccc([N+](=O)[O-])cc1 (stereo not given) | NCI-H460 lung | class 1 |

With those in mind, consider the next molecule.
Q: Look up the recorded call for C[C@]12CC[C@H]3[C@@H](C[C@@H]4SC(Nc5cccc(F)c5)=N[C@@]45CC(=O)CC[C@]35C)[C@@H]1CCC2=O in this test.
Result: class 0

* * *

Tested on: SW-620 colon
Procedure text: NCI tumour cell line growth inhibition, 48 h
TGI overview
Entry rule: numbers only, all in µM.

Example cases with answers are listed next.
| Compound smiles | Target or test system | TGI [µM] |
| --- | --- | --- |
| COc1ccc2cc(C(=O)/C=C/c3ccc(OC)c(OC)c3)ccc2c1 | SW-620 colon | 27.1 |
| C[C@]12CC[C@H]3[C@@H](C[C@@H]4SC(Nc5cccc(F)c5)=N[C@@]45CC(=O)CC[C@]35C)[C@@H]1CCC2=O | SW-620 colon | 4.99 |

Could you now consider this next molecule?
Q: Which TGI value is on record for CCOc1ccc(N=Cc2cc(OC)c(OC)c(OC)c2)cc1 ?
Result: 32.1

* * *

System: HCT-116 colon
Procedure text: NCI tumour cell line growth inhibition, 48 h
Assay metric: TGI

Completed entries (count: 5):
| Compound | Target or test system | TGI |
| --- | --- | --- |
| Cc1ccc(NC(=O)SCCC(=O)O)cc1NC(=O)SCCC(=O)O | HCT-116 colon | > 100 µM |
| CCCCCCCCCCCCCCCCCCNc1ccn(C2OC(CO)C(OP(=O)(O)OCC3CCC(n4ccc(N)nc4=O)O3)C2O)c(=O)n1 (stereo unspecified) | HCT-116 colon | > 100 µM |
| CC(NC1CCC[C@H]1O)c1ccccc1 (mixture of isomers) | HCT-116 colon | > 100 µM |
| CC1=COC2=C(C)C(=O)C(=O)c3c(C)ccc1c32 | HCT-116 colon | 20.6 µM |
| Nc1ccc(-c2ccc(-c3nc4ccccc4[nH]3)cc2)cc1 | HCT-116 colon | > 100 µM |

Q: Could you tell me which TGI is on file for CN/N=C(\C)CC(=O)Nc1cccc(Cl)c1C ?
Result: > 100 µM

Q: Data request, read-out TGI, for Cc1cc(N2CCN(C)CC2)nc(NC2CCCC(Nc3ccnc4cc(Cl)ccc34)C2)n1 (stereo unspecified)
Result: 3.74 µM

Q: Return reported TGI; argument: COC(CNC(=O)C(C)NC(=O)C(C)NC(=O)c1ccccc1)OC (stereo unspecified)
Result: > 100 µM

Q: Consider the compound CC(C)NC(C)Cc1ccccc1 (stereo unspecified) and give its measured TGI.
Result: > 100 µM

Q: Any idea what its TGI is? The compound is O=[N+]([O-])c1ccc(N(CCO)CCO)c2c1no[n+]2[O-]
Result: 3.03 µM

Q: Entry CSc1s[s+]c(SC)c1[O-] has what TGI?
Result: 36.8 µM

* * *

Documented TGI across a set of compounds
Test system: NCI-H460 lung
Procedure text: NCI tumour cell line growth inhibition, 48 h

Recorded results for 5 compounds are shown here.
| Compound | TGI |
| --- | --- |
| O=C1CCC(=O)c2cc(Br)ccc2N1 | > 100 µM |
| CC1=NN(C(=O)c2ccc(Cl)cc2)C(=O)/C1=C/c1cccc(O)c1 | > 100 µM |
| Cc1cccc(NC(=O)CC2C(=O)Nc3ccccc3S2(=O)=O)c1C (centres undefined) | 82.4 µM |
| O=C(O)[C@@H]1C[C@@H](O)CN1 | > 100 µM |
| CCOC(=O)c1c(C)c2c(n1C)CSc1cc(S(=O)(=O)c3ccccc3)c(=O)[nH]c1-2 | > 100 µM |

Q: What value of TGI has been recorded for this entry: CN(C)CC1(C)CC/C(=C\c2ccc3c(c2)OCO3)C1=O (centres undefined)
Result: > 100 µM

Q: Return reported TGI; argument: CC(C)C1OCC(CO)CO1 (centres undefined)
Result: > 100 µM

Q: Can you look up the measured TGI of CCC(=S)N(C)O for me?
Result: 70.3 µM

Q: Which TGI value belongs to COc1cc(CNC(=O)CCCCCCCC/C=C/Br)ccc1O ?
Result: > 10 µM

Q: Look up TGI: O=C(Nc1ccc(-n2cc(-c3ccncc3)c(-c3ccc(Cl)c(O)c3)n2)cc1)c1cc(Cl)cc(Cl)c1
Result: > 100 µM

Q: Item under review: Nc1nc(Cl)cc(Nc2ccc3c(c2)CCC3)n1 . Reported TGI?
Result: > 100 µM

Q: I'd like to know its TGI. The compound in question is COc1cc2c(cc1OC)-c1cc3ccccc3c(=O)n1CCC2
Result: 11.2 µM

Q: What does the data say about its TGI? Entry: COC(=O)c1c2c(c(C)[n+]([O-])c1C)C(=O)C(NCc1ccc(F)c(Cl)c1)=CC2=O
Result: 9.09 µM

Q: Form field: reported TGI of O=C(O)C1Cc2nc[nH]c2CN1 (centres undefined)
Result: > 100 µM
